All figures here come from ChEMBL document CHEMBL5316303.

- System: HEK-293T
- Assay remarks: Cytotoxicity in […] cells at 10 to 100 uM measured after 24 hrs by WST-1 based colorimetric assay
- Type: toxicity, cell-based
- Experimental context: human, dose 10-100 µM
Measure name: Activity

// worked examples, Activity included
Query smiles	Activity
Cc1ccc2c(c1)sc1nnc(N)n12	Non-Toxic
Oc1ccc2c(c1)sc1nncn12	Non-Toxic
CC(C)c1ccc2c(c1)sc1nncn12	Toxic
Oc1ccc(O)c2c1sc1nncn12	Toxic

Query: Could you tell me which Activity is on file for COc1ccc(OC)c2c1sc1nnc(N)n12 ?
Reply: Non-Toxic

---

- Tested target: Protein mono-ADP-ribosyltransferase PARP15 (Homo sapiens)
- Sequence (Q460N3 whole entry): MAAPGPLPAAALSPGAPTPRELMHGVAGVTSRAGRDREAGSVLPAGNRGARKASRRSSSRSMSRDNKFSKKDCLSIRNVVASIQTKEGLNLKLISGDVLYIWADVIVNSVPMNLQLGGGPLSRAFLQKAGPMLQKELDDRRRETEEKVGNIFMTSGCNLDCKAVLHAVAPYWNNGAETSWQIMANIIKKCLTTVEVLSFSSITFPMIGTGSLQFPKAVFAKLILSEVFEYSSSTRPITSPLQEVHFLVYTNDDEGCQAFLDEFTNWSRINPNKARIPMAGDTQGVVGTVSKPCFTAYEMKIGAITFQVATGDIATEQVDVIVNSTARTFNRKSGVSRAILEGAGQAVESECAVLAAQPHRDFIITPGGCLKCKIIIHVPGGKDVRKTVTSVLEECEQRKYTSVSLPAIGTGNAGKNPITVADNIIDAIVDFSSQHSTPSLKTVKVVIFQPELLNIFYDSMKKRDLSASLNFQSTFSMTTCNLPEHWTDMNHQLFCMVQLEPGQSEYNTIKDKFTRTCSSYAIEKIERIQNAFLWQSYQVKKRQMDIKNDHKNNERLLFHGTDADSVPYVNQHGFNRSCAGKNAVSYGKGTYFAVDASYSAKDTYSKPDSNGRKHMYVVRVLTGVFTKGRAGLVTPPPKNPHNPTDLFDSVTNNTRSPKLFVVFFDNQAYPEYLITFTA
- Assay remarks: Inhibition of N-terminal MBP tagged/C-terminal PARP15 (unknown origin) expressed in Escherichia coli in presence of NAD+

Query smiles	IC50
COc1ccc(OC)c2c1sc1nnc(NC(C)=O)n12	Not Active
COc1ccc(OC)c2c1sc1nnc(SC)n12	Not Active
COc1ccc(OC)c2c1sc1nnc(NC(=O)C(C)(C)C)n12	Not Active
COc1ccc(OC)c2c1sc1nnc(S)n12	Not Active
